The entries below are paired with their reported reverse-splicing fitness.
B1: Azoarcus group I ribozyme (parent)
chain: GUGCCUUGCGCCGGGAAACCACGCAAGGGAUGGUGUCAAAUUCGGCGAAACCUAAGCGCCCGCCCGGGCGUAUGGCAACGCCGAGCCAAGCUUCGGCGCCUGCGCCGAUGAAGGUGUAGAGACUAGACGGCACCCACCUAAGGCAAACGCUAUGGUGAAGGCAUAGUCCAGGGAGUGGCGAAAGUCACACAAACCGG

variants of: B1; assay: reverse-splicing fitness (ratio to wild type); higher = more active; in vitro selection; Mg2+ level not given

C82G A111G A120G A145G C169U U176G; 0.00529

Here is another variant to look at.
Tell me the measured reverse-splicing fitness of A111G A120U C169A , please.
0.00619
